Origin of measurements: paper PMC8623273

eukaryotic translation initiation factor 4E (eIF4E) (Mus musculus, UniProt P63073) data, read-out Kd
Sequence (P63073 whole entry): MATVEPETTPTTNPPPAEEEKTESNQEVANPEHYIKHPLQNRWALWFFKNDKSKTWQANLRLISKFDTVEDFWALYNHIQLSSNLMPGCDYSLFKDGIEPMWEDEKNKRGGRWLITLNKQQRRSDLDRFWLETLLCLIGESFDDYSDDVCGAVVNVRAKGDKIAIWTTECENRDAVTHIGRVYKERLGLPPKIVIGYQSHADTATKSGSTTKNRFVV
propertyMeasured: Kd (nM)

>  <compound>
CO[C@@H]1[C@H](O)[C@@H](COP(=O)(O)OP(=O)([O-])OP(=O)(O)OC[C@H]2O[C@@H](n3cnc4c(=O)[nH]c(N)nc43)[C@H](O)[C@@H]2O)O[C@H]1n1c[n+](Cc2ccc(Cl)cc2)c2c(O)nc(N)nc21

>  <measurementTarget>
eukaryotic translation initiation factor 4E (eIF4E) (Mus musculus, UniProt P63073)

>  <censoringOperator>
=

>  <recordedMeasurement>
132

$$$$
>  <compound>
Nc1nc(O)c2c(n1)n([C@@H]1O[C@H](COP(=O)(O)OP(=O)([O-])OP(=O)(O)OC[C@H]3O[C@@H](n4cnc5c(=O)[nH]c(N)nc54)[C@H](O)[C@@H]3O)[C@@H](O)[C@H]1O)c[n+]2Cc1ccc(Br)cc1

>  <measurementTarget>
eukaryotic translation initiation factor 4E (eIF4E) (Mus musculus, UniProt P63073)

>  <censoringOperator>
=

>  <recordedMeasurement>
172

$$$$
>  <compound>
Nc1nc(O)c2c(n1)n([C@@H]1O[C@H](COP(=O)(O)OP(=O)([O-])OP(=O)(O)OC[C@H]3O[C@@H](n4cnc5c(=O)[nH]c(N)nc54)[C@H](O)[C@@H]3O)[C@@H](O)[C@H]1O)c[n+]2Cc1ccc(C(=O)O)cc1

>  <measurementTarget>
eukaryotic translation initiation factor 4E (eIF4E) (Mus musculus, UniProt P63073)

>  <censoringOperator>
>

>  <recordedMeasurement>
50000

$$$$
>  <compound>
Nc1nc(O)c2c(n1)n([C@@H]1O[C@H](COP(=O)(O)OP(=O)([O-])OP(=O)(O)OC[C@H]3O[C@@H](n4cnc5c(=O)[nH]c(N)nc54)[C@H](O)[C@@H]3O)[C@@H](O)[C@H]1O)c[n+]2Cc1ccc(Cl)cc1

>  <measurementTarget>
eukaryotic translation initiation factor 4E (eIF4E) (Mus musculus, UniProt P63073)

>  <censoringOperator>
=

>  <recordedMeasurement>
221

$$$$
>  <compound>
Nc1nc(O)c2c(n1)n([C@@H]1O[C@H](COP(=O)(O)OP(=O)([O-])OP(=O)(O)OC[C@H]3O[C@@H](n4cnc5c(=O)[nH]c(N)nc54)[C@H](O)[C@@H]3O)[C@@H](O)[C@H]1O)c[n+]2Cc1ccc(F)c(F)c1

>  <measurementTarget>
eukaryotic translation initiation factor 4E (eIF4E) (Mus musculus, UniProt P63073)

>  <censoringOperator>
=

>  <recordedMeasurement>
489

$$$$
>  <compound>
CO[C@@H]1[C@H](O)[C@@H](COP(=O)(O)OP(=O)([O-])OP(=O)(O)OC[C@H]2O[C@@H](n3cnc4c(=O)[nH]c(N)nc43)[C@H](O)[C@@H]2O)O[C@H]1n1c[n+](Cc2ccccc2)c2c(O)nc(N)nc21

>  <measurementTarget>
eukaryotic translation initiation factor 4E (eIF4E) (Mus musculus, UniProt P63073)

>  <censoringOperator>
=

>  <recordedMeasurement>
171

$$$$
>  <compound>
Cc1cc(C)cc(C[n+]2cn([C@@H]3O[C@H](COP(=O)(O)OP(=O)([O-])OP(=O)(O)OC[C@H]4O[C@@H](n5cnc6c(=O)[nH]c(N)nc65)[C@H](O)[C@@H]4O)[C@@H](O)[C@H]3O)c3nc(N)nc(O)c32)c1

>  <measurementTarget>
eukaryotic translation initiation factor 4E (eIF4E) (Mus musculus, UniProt P63073)

>  <censoringOperator>
=

>  <recordedMeasurement>
646

$$$$
>  <compound>
Nc1nc(O)c2c(n1)n([C@@H]1O[C@H](COP(=O)(O)OP(=O)([O-])OP(=O)(O)OC[C@H]3O[C@@H](n4cnc5c(=O)[nH]c(N)nc54)[C@H](O)[C@@H]3O)[C@@H](O)[C@H]1O)c[n+]2Cc1ccc(C(F)(F)F)cc1

>  <measurementTarget>
eukaryotic translation initiation factor 4E (eIF4E) (Mus musculus, UniProt P63073)

>  <censoringOperator>
=

>  <recordedMeasurement>
293

$$$$
>  <compound>
Nc1nc(O)c2c(n1)n([C@@H]1O[C@H](COP(=O)(O)OP(=O)([O-])OP(=O)(O)OC[C@H]3O[C@@H](n4cnc5c(=O)[nH]c(N)nc54)[C@H](O)[C@@H]3O)[C@@H](O)[C@H]1O)c[n+]2Cc1ccc(F)cc1F

>  <measurementTarget>
eukaryotic translation initiation factor 4E (eIF4E) (Mus musculus, UniProt P63073)

>  <censoringOperator>
=

>  <recordedMeasurement>
598

$$$$
>  <compound>
Cc1cccc(C[n+]2cn([C@@H]3O[C@H](COP(=O)(O)OP(=O)([O-])OP(=O)(O)OC[C@H]4O[C@@H](n5cnc6c(=O)[nH]c(N)nc65)[C@H](O)[C@@H]4O)[C@@H](O)[C@H]3O)c3nc(N)nc(O)c32)c1

>  <measurementTarget>
eukaryotic translation initiation factor 4E (eIF4E) (Mus musculus, UniProt P63073)

>  <censoringOperator>
=

>  <recordedMeasurement>
319

$$$$
>  <compound>
Cc1ccccc1C[n+]1cn([C@@H]2O[C@H](COP(=O)(O)OP(=O)([O-])OP(=O)(O)OC[C@H]3O[C@@H](n4cnc5c(=O)[nH]c(N)nc54)[C@H](O)[C@@H]3O)[C@@H](O)[C@H]2O)c2nc(N)nc(O)c21

>  <measurementTarget>
eukaryotic translation initiation factor 4E (eIF4E) (Mus musculus, UniProt P63073)

>  <censoringOperator>
=

>  <recordedMeasurement>
1910

$$$$
>  <compound>
Nc1nc(O)c2c(n1)n([C@@H]1O[C@H](COP(=O)(O)OP(=O)([O-])OP(=O)(O)OC[C@H]3O[C@@H](n4cnc5c(=O)[nH]c(N)nc54)[C@H](O)[C@@H]3O)[C@@H](O)[C@H]1O)c[n+]2Cc1ccccc1

>  <measurementTarget>
eukaryotic translation initiation factor 4E (eIF4E) (Mus musculus, UniProt P63073)

>  <censoringOperator>
=

>  <recordedMeasurement>
217

$$$$
>  <compound>
Nc1nc(O)c2c(n1)n([C@@H]1O[C@H](COP(=O)(O)OP(=O)([O-])OP(=O)(O)OC[C@H]3O[C@@H](n4cnc5c(=O)[nH]c(N)nc54)[C@H](O)[C@@H]3O)[C@@H](O)[C@H]1O)c[n+]2Cc1ccc([N+](=O)[O-])cc1

>  <measurementTarget>
eukaryotic translation initiation factor 4E (eIF4E) (Mus musculus, UniProt P63073)

>  <censoringOperator>
=

>  <recordedMeasurement>
367

$$$$
>  <compound>
Nc1nc(O)c2c(n1)n([C@@H]1O[C@H](COP(=O)(O)OP(=O)([O-])OP(=O)(O)OC[C@H]3O[C@@H](n4cnc5c(=O)[nH]c(N)nc54)[C@H](O)[C@@H]3O)[C@@H](O)[C@H]1O)c[n+]2Cc1ccc2ccccc2c1

>  <measurementTarget>
eukaryotic translation initiation factor 4E (eIF4E) (Mus musculus, UniProt P63073)

>  <censoringOperator>
=

>  <recordedMeasurement>
1060

$$$$
>  <compound>
Cn1c[n+]([C@@H]2O[C@H](COP(=O)(O)OP(=O)([O-])OP(=O)(O)OC[C@H]3O[C@@H](n4cnc5c(=O)[nH]c(N)nc54)[C@H](O)[C@@H]3O)[C@@H](O)[C@H]2O)c2nc(N)[nH]c(=O)c21 [m^7GpppG, reference compound]

>  <measurementTarget>
eukaryotic translation initiation factor 4E (eIF4E) (Mus musculus, UniProt P63073)

>  <censoringOperator>
=

>  <recordedMeasurement>
229

$$$$

###

Catalogue of pKd values
Molecular target: eIF4E (Mus musculus)
Sequence (P63073 whole entry): as above
Assay: fluorescence anisotropy (FA) competition assay with eIF4E
Format: binding
Conditions: Table S2; calculated from EC50
pKd: −log10 of the molar value.
propertyMeasured: pKd

>  <compound>
Nc1nc(O)c2c(n1)n([C@@H]1O[C@H](COP(=O)(O)OP(=O)([O-])OP(=O)(O)OC[C@H]3O[C@@H](n4cnc5c(=O)[nH]c(N)nc54)[C@H](O)[C@@H]3O)[C@@H](O)[C@H]1O)c[n+]2Cc1ccc(F)c(F)c1 [1k, 3,4-di-F-Bn^7GpppG]

>  <recordedMeasurement>
6.52

$$$$
>  <compound>
Nc1nc(O)c2c(n1)n([C@@H]1O[C@H](COP(=O)(O)OP(=O)([O-])OP(=O)(O)OC[C@H]3O[C@@H](n4cnc5c(=O)[nH]c(N)nc54)[C@H](O)[C@@H]3O)[C@@H](O)[C@H]1O)c[n+]2Cc1ccc(F)cc1F [1j, 2,4-di-F-Bn^7GpppG]

>  <recordedMeasurement>
6.53

$$$$
>  <compound>
CO[C@@H]1[C@H](O)[C@@H](COP(=O)(O)OP(=O)([O-])OP(=O)(O)OC[C@H]2O[C@@H](n3cnc4c(=O)[nH]c(N)nc43)[C@H](O)[C@@H]2O)O[C@H]1n1c[n+](Cc2ccc(Cl)cc2)c2c(O)nc(N)nc21 [1r, 4-Cl-Bn^7GmpppG]

>  <recordedMeasurement>
7.35

$$$$
